Tested on: Escherichia coli TOP10
Assay: shrunken log2 fold change of peptide-encoding DNA abundance (4.5 h post-induction vs induction); higher = less antimicrobial activity (less host growth inhibition)
Settings: time post-induction: 4.5 h; library: site-saturation at positions 5, 18, 19, 20
Returns the class for an entry based on its shrunken log2 fold change. Class ranges: LOW (below -0.09), MID (-0.09 to below 0.1), HIGH (0.1 or more)

>  <Sequence string>
RRIRVRPPRLPRPRPRPSIMPRP

>  <Assigned label>
LOW

$$$$
>  <Sequence string>
RRIRQRPPRLPRPRPRPRRKPRP

>  <Assigned label>
HIGH

$$$$
>  <Sequence string>
RRIRHRPPRLPRPRPRPGRWPRP

>  <Assigned label>
HIGH

$$$$

Prompt: Pick a category. Item: RRIRHRPPRLPRPRPRPLLKPRP
Completion: MID

Prompt: Pick a category. Item: RRIRARPPRLPRPRPRPKDAPRP
Completion: HIGH

Prompt: Pick a category. Item: RRIRSRPPRLPRPRPRPCTAPRP
Completion: LOW

Prompt: Pick a category. Item: RRIRKRPPRLPRPRPRPFSMPRP
Completion: LOW

Prompt: Pick a category. Item: RRIRGRPPRLPRPRPRPPNSPRP
Completion: HIGH

* * *

Tested on: Escherichia coli TOP10
Assay: shrunken log2 fold change of peptide-encoding DNA abundance (4.5 h post-induction vs induction); higher = less antimicrobial activity (less host growth inhibition)
Conditions: time post-induction: 4.5 h; library: site-saturation at positions 5, 18, 19, 20
Returns the class for an entry based on its shrunken log2 fold change. Class ranges: bottom bin (below -0.05), middle bin (-0.05 to below 0.2), top bin (0.2 or more)

Would you please look over these solved cases?
>  <Sequence string>
RRIRVRPPRLPRPRPRPPYEPRP

>  <Assigned label>
middle bin

$$$$
>  <Sequence string>
RRIRTRPPRLPRPRPRPWTSPRP

>  <Assigned label>
middle bin

$$$$

Prompt: Pick a category. Item: RRIRMRPPRLPRPRPRPGNNPRP
Completion: bottom bin

Prompt: Pick a category. Item: RRIRKRPPRLPRPRPRPLEHPRP
Completion: middle bin

Prompt: Pick a category. Item: RRIRDRPPRLPRPRPRPFQLPRP
Completion: bottom bin

Prompt: Pick a category. Item: RRIRKRPPRLPRPRPRPRWDPRP
Completion: middle bin

* * *

System: Escherichia coli TOP10
Assay: shrunken log2 fold change of peptide-encoding DNA abundance (4.5 h post-induction vs induction); higher = less antimicrobial activity (less host growth inhibition)
Details: time post-induction: 4.5 h; library: site-saturation at positions 5, 18, 19, 20
Label yes for high-side shrunken log2 fold change (at or above -0.06) and no for low-side shrunken log2 fold change (below it).

Prompt: Check if shrunken log2 fold change >= -0.06 (inclusive). Item: RRIRERPPRLPRPRPRPRRFPRP
Completion: yes

Prompt: Check if shrunken log2 fold change >= -0.06 (inclusive). Item: RRIRVRPPRLPRPRPRPPCPPRP
Completion: yes

* * *

Recorded measurements of shrunken log2 fold change, one per entry
Tested on: Escherichia coli TOP10
Assay: shrunken log2 fold change of peptide-encoding DNA abundance (4.5 h post-induction vs induction); higher = less antimicrobial activity (less host growth inhibition)
Conditions: time post-induction: 4.5 h; library: site-saturation at positions 5, 18, 19, 20
When you answer, write just the number.

Solved cases (5 shown):
>  <Sequence string>
RRIRGRPPRLPRPRPRPFHEPRP

>  <shrunken log2 fold change>
-0.537

$$$$
>  <Sequence string>
RRIRERPPRLPRPRPRPINCPRP

>  <shrunken log2 fold change>
-0.00179

$$$$
>  <Sequence string>
RRIRFRPPRLPRPRPRPWNPPRP

>  <shrunken log2 fold change>
-0.222

$$$$
>  <Sequence string>
RRIRYRPPRLPRPRPRPPCSPRP

>  <shrunken log2 fold change>
-0.957

$$$$
>  <Sequence string>
RRIRCRPPRLPRPRPRPFMLPRP

>  <shrunken log2 fold change>
-0.697

$$$$

Prompt: Could you share what shrunken log2 fold change was measured for RRIRMRPPRLPRPRPRPHDLPRP , tested on Escherichia coli TOP10?
Completion: -0.0136

Prompt: Could you share what shrunken log2 fold change was measured for RRIRMRPPRLPRPRPRPLHDPRP , tested on Escherichia coli TOP10?
Completion: 0.487

Prompt: Could you share what shrunken log2 fold change was measured for RRIRYRPPRLPRPRPRPVENPRP , tested on Escherichia coli TOP10?
Completion: -0.0898

Prompt: Could you share what shrunken log2 fold change was measured for RRIRSRPPRLPRPRPRPTITPRP , tested on Escherichia coli TOP10?;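 also: peptides expressed intracellularly from a pBAD plasmid library in pooled LB shake-flask culture, induced with 0.3% L-arabinose, DNA abundance read by NGS, three biological replicates, DESeq2 with apeglm shrinkage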
Completion: -0.229
